Values from patent US20260242478A1

Molecular target: T1, PSMA Fab
T1 construct: Biotinylated PSMA Fab captured on neutravidin coated plates in the phage ELISA; also called Anti-PSMA Fab; 006 PSMA Fab
Assay: clonal phage ELISA on captured PSMA Fab pre-incubated with PSMA antigen as competitor, anti-M13 HRP detection;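 further: crude clonal phage supernatants tested by ELISA, wells first treated with blocking buffer plus PSMA antigen, bound phage read out via HRP-linked anti-M13 antibody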
Where no end group is shown, it is not given here.
Each entry below lists one item and its recorded phage binding ELISA signal (Anti-PSMA Fab, PSMA antigen present) value.
// return a plain number; no unit text

Consider the binder VHKMCTPPWMCVTQ [Phage-2783] and give its recorded phage binding ELISA signal (Anti-PSMA Fab, PSMA antigen present).
0.0908

Consider the binder DMKLCRPAWMCMHN [Phage-2784] and give its recorded phage binding ELISA signal (Anti-PSMA Fab, PSMA antigen present).
0.0536

Consider the binder QMHWCMPPWMCEGI (cysteine pairing not given here; also: fused to pIII, displayed on bacteriophage) [Phage-2771] and give its recorded phage binding ELISA signal (Anti-PSMA Fab, PSMA antigen present).
0.0705

Consider the binder DLKWCVPTWMCNWS [Phage-2775] and give its recorded phage binding ELISA signal (Anti-PSMA Fab, PSMA antigen present).
0.0692

Consider the binder GPKWCTPTWMCEFS [Phage-2776] and give its recorded phage binding ELISA signal (Anti-PSMA Fab, PSMA antigen present).
0.0754

Consider the binder DQNWCIPHWMCVGI [Phage-2779] and give its recorded phage binding ELISA signal (Anti-PSMA Fab, PSMA antigen present).
0.0883

Consider the binder GSNWCKPAWMCSVA [Phage-2777] and give its recorded phage binding ELISA signal (Anti-PSMA Fab, PSMA antigen present).
0.0623

Consider the binder SMKMCTPPWMCEFA [Phage-2774] and give its recorded phage binding ELISA signal (Anti-PSMA Fab, PSMA antigen present).
0.0631

Consider the binder DVKWCTPPWMCLSD [Phage-2785] and give its recorded phage binding ELISA signal (Anti-PSMA Fab, PSMA antigen present).
0.1
